# TESTED TARGET: Msn1 (UniProt P22148)
# Sequence: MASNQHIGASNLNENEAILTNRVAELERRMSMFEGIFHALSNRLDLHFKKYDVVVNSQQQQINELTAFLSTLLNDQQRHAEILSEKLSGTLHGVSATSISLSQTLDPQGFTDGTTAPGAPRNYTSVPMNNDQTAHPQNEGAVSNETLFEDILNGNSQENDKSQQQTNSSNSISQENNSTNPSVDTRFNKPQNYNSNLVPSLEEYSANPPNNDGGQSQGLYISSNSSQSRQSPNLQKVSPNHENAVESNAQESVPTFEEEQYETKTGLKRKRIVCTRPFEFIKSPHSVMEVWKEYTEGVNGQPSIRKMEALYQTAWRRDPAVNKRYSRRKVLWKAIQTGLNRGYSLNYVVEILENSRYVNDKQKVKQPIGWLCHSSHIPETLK
# PROTOCOL DETAILS: PBM E-score (8-mer binding enrichment) (E-score (-0.5 to 0.5)); higher = stronger / more preferred TF binding
# MEASUREMENT CONDITIONS: protein concentration: 200 nM; construct: GST-full length
Over roughly 33,000 sequences, “E-score (-0.5 to 0.5)” has its median near -0.013; the highest 2% begin near 0.3. For the sample, the highest values were picked, then their nearest neighbours and some sequences at random.
Rule: PBM E-score of 0.2 or more gives t; anything lower gives f.

Check the entry CTGGACAC : does PBM E-score equal or exceed 0.2?
t

Does PBM E-score meet or surpass 0.2 for CAGGTAAC ?
f

Check this sequence for PBM E-score at or above 0.2: CGGGGCCA
f

Decide: PBM E-score of CTCAACGC >= 0.2?
f

Given the entry TTCGACAA , answer whether its PBM E-score meets or surpasses 0.2.
f

Hi team, for GATACAAA , is the recorded PBM E-score at or above 0.2?
t

Say whether CCGTCCAG shows PBM E-score of 0.2 or more.
f

Could you please find out whether GTGGACGA has PBM E-score that meets 0.2 or exceeds it?
f

Tell me whether PBM E-score is at least 0.2 here: TAAGACGA
f

Hello, I need to know if CATAGATC has measured PBM E-score not below 0.2. Thanks!
f

For this sequence, is measured PBM E-score 0.2 or higher? GATCAGAC
f

# bool: PBM E-score of AGTACAAT >= 0.2
t

Has AGTACAAG a recorded PBM E-score greater than or equal to 0.2?
t

In plain terms: is recorded PBM E-score at least 0.2 for TATACAAA ?
f

hey, is PBM E-score for this one >= 0.2? CTGAGCTC
f

Exam item: decide whether the reported PBM E-score for GGTACATA is at least 0.2.
t

I'd appreciate it if you could say whether CTGGACAA has PBM E-score at least equal to 0.2.
t

Check if PBM E-score >= 0.2 (inclusive). Item: TAAGACCA
f

Given the entry AAAGACAC , answer whether its PBM E-score meets or surpasses 0.2.
t

Could you verify whether the entry CGTACATA shows PBM E-score of no less than 0.2?
t

Quick check, PBM E-score >= 0.2? GACCATTA
f

Does the sequence AAAGACAA have recorded PBM E-score that is 0.2 or more?
t
